Assay: A CellTox Green Cytotoxicity Assay to monitor cytotoxicity in HepG2 cells - 24 hour (AID 1224878); note: nearly all actives have a fitted effect of over 45% in size
Conditions: CellTox Green fluorescence; series mostly up to 76.8 µM
Inconclusive results are not listed. The source made the active and inactive calls. Calls come from the whole dose curve; as a rule, active = well fitted activation curve with a large enough effect in the repeat runs; inconclusive = weak or mixed curves; inactive = flat fitted curve, though single readings scatter.
Measured Attribute: cytotoxicity

Compound	cytotoxicity
FC1(F)C(F)(F)C(F)(F)C2(F)C(F)(F)C(F)(F)C(F)(F)C(F)(F)C2(F)C1(F)F (stereo not drawn)	inactive
CC(=O)OCC(=O)[C@@]1(O)CCC2C3CCC4=CC(=O)CC[C@]4(C)C3[C@@H](O)C[C@@]21C (stereo partly drawn)	inactive
CCO[Si](CCC1CCC2OC2C1)(OCC)OCC (stereo not drawn)	inactive
CC1(C)C(O)C(C)(C)C1O (stereo not drawn)	inactive
O=c1cc(-c2ccccc2)oc2ccccc12	inactive

Query: Which cytotoxicity is reported for this compound? Cc1c(O)cccc1O
Result: inactive

Query: Same question for C=CCS(=O)(=O)O please.
Result: inactive

Query: Repeat for the following compound: CCn1nc(C(=O)O)c(=O)c2cc3c(cc21)OCO3
Result: inactive

Query: Repeat for the following compound: COC(=O)NN
Result: inactive

Query: Ok, now CC(=O)OC/C=C(\C)CC/C=C(\C)CCC=C(C)C
Result: inactive

Query: And for NS(=O)(=O)c1cc(C(=O)O)cc(N2CCCC2)c1Oc1ccccc1 ?
Result: inactive

Query: Can you handle CCN1CCC[C@H]1CNC(=O)c1c(O)c(Cl)cc(Cl)c1OC next?
Result: inactive

Query: Entry to check: O=C[C@H](O)[C@@H](O)[C@H](O)[C@H](O)CO
Result: inactive

Query: Same question for CCn1ccnc1CC1COc2ccccc2O1 (stereo not drawn) please.
Result: inactive

Query: # repeat for CC(C)(C)c1ccc(O)c(O)c1
Result: inactive

Query: Please do the same for OC(CCN1CCCCC1)(c1ccccc1)C1CC2C=CC1C2 (stereo not drawn) as well.
Result: inactive

Query: And what about the compound CC(C)CCCC(C)N (stereo not drawn) ?
Result: inactive

Query: Consider next the compound CC(NC(CCc1ccccc1)C(=O)O)C(=O)N1C(=O)N(C)CC1C(=O)O (stereo not drawn) in the same way.
Result: inactive
